Biological target: CRBN-DDB1 (Homo sapiens, UniProt Q96SW2)
Sequence (Q96SW2 whole entry): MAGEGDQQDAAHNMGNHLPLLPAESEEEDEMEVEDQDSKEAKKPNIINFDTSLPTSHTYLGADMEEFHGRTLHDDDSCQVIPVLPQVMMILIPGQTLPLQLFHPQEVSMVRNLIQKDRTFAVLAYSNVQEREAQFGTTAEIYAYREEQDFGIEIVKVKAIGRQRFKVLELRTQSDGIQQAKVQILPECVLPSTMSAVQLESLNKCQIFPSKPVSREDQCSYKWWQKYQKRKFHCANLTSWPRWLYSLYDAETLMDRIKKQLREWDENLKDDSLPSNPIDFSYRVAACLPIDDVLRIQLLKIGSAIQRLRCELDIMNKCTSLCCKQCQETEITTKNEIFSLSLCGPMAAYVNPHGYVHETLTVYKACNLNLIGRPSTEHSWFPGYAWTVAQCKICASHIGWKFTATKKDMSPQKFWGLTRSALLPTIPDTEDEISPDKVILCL
Sequence (Q16531 whole entry partner): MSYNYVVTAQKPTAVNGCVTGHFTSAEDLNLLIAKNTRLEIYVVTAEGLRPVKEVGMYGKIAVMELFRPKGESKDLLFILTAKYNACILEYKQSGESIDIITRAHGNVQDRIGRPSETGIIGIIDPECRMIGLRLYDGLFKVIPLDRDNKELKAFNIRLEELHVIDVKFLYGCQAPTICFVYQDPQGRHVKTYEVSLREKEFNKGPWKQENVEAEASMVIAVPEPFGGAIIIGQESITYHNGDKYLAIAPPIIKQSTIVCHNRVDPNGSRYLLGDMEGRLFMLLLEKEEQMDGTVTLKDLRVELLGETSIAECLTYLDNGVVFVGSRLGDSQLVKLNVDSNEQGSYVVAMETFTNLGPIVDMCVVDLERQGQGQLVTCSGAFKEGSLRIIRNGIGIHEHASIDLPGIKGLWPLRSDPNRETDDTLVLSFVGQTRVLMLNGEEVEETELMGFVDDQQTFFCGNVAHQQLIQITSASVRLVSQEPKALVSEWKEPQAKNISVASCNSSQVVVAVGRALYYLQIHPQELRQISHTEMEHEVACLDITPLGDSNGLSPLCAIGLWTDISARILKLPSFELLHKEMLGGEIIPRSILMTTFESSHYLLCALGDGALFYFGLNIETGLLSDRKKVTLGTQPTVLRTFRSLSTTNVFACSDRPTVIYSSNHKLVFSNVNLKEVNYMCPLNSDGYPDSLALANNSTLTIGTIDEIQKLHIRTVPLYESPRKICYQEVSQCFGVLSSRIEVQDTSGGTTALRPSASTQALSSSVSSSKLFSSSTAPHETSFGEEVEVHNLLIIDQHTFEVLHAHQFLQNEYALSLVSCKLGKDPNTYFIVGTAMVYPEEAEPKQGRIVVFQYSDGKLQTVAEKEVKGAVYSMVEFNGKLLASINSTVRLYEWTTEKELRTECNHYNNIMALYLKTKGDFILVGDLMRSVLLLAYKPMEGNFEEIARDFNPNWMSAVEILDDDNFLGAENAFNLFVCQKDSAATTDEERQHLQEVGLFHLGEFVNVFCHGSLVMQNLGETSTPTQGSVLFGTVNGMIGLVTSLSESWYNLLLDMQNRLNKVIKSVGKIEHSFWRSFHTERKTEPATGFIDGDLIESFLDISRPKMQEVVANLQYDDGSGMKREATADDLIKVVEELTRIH
Experiment: CRBN Fluorescence Polarization Assay with BODIPY-IMid Tracer
Type: binding
Set-up: unit not given here
Conditions: competition with 30 nM BODIPY-IMiD tracer for 500 nM CRBN-DDB1, 3-fold serial dilution
Threshold check on Result: at or above 0.5 gives Met, strictly below gives Not met.

Look over these answered cases.
INSERT INTO assay_data (molecule, system_tested, category) VALUES
  ('COC(=O)C1CCN(Cc2ccc(COc3cccc4c3CN(C3CCC(=O)NC3=O)C4=O)cc2)C1 (stereo not drawn)', 'CRBN-DDB1 (Homo sapiens, UniProt Q96SW2)', 'Not met'),
  ('O=C1CCC(N2Cc3c(OCCO)cccc3C2=O)C(=O)N1 (stereo not drawn)', 'CRBN-DDB1 (Homo sapiens, UniProt Q96SW2)', 'Met'),
  ('COC(=O)C1CCN(Cc2ccc(COc3cccc4c3CN(C3CCC(=O)NC3=O)C4=O)cc2)CC1 (stereo not drawn)', 'CRBN-DDB1 (Homo sapiens, UniProt Q96SW2)', 'Not met'),
  ('O=C1CCC(N2Cc3c(OCc4ccc(Cn5ccnc5)cc4)cccc3C2=O)C(=O)N1 (stereo not drawn)', 'CRBN-DDB1 (Homo sapiens, UniProt Q96SW2)', 'Not met'),
  ('O=C1CC[C@@H](N2Cc3c(OCc4ccc(CN5CCOCC5)cc4)cccc3C2=O)C(=O)N1', 'CRBN-DDB1 (Homo sapiens, UniProt Q96SW2)', 'Not met');

Reported Result at or above 0.5? O=C1CCC(N2Cc3c(OCc4cc(CN5CCOCC5)ccn4)cccc3C2=O)C(=O)N1 (stereo not drawn)
Met

COc1ccc2c(c1)C(=O)N(C1CCC(=O)NC1=O)C2 (stereo not drawn) , same question.
Met

Then `O=C1CC[C@H](N2Cc3c(OCc4ccccc4)ccc(Br)c3C2=O)C(=O)N1` ?
Not met

Would you mind doing `O=C1CC[C@H](N2Cc3cc(OCc4ccccc4)ccc3C2=O)C(=O)N1` as well?
Met
